Listed next: entries and their corresponding growth inhibition.
Experiment: NCI Yeast Anticancer Drug Screen. Data for the rad50 strain (AID 155);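 note: 0% = growth of vehicle-only cultures of the same strain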
Settings: S. cerevisiae rad50 strain growth inhibition; at 50.0 µM (retest, dose inferred, filed as 5.0); stronger effect = higher value
Description: Growth inhibition of yeast strains with defined genetic alterations is measured as a screen for potential anti-cancer activity. Selected strains with alterations in DNA damage repair or cell cycle control were exposed to compounds and growth inhibition was measured relative to vehicle treated controls. The strain used in this assay is rad50
This is part of a sample that, as a whole, favours compounds with a hit. Of some 79,000 tested, about 15% had one in any assay.
Quick note: give the figure in %, leave out the unit.

Would you please look over these solved cases?
| compound | readout | assay.value |
| --- | --- | --- |
| O=c1c2cc3ccccc3cc2c(=O)n2n1CC=CC2 | growth inhibition | 39 |
| CCCNCCCC(C)Nc1cc(OC)cc2c(C)ccnc12 (centres undefined) | growth inhibition | 73 |
| CCCCCCCCCCCC(=O)NN | growth inhibition | 82 |

For this compound ( `CCNC(=O)COc1ccc(Cl)cc1Cl` ), measured growth inhibition is 10

The compound identified as Oc1ccc2c(c1)OCC1c3ccccc3OC21 (centres undefined) registered its growth inhibition at 71

The reported growth inhibition of the compound `CC(C)(C)OC(=O)N(CCCCNC(=O)OCc1ccccc1)CCCNC(=O)OCc1ccccc1` was 9

get_value(item= `O=C(O)c1cc(Br)ccc1OCc1ccc(Cl)cc1` , readout=growth inhibition) returns 28

Sample `c1ccc(Cn2nnnc2-c2ccccc2)cc1` ; growth inhibition observed: -125

`Cc1ccc(C(=O)/C(Cl)=N/O)cc1` has a reported growth inhibition of 99

====

Assay: NCI Yeast Anticancer Drug Screen. Data for the mlh1 rad18 strain (AID 175)
Details: S. cerevisiae mlh1 rad18 strain growth inhibition; at 50.0 µM (retest, dose inferred, filed as 5.0); stronger effect = higher value
This is part of a sample that, as a whole, favours compounds with a hit. Of some 79,000 tested, about 15% had one in any assay.
This listing pairs molecules with measured growth inhibition.
Lab book: enter the figure in %, no units written.

| molecule | endpoint.unit | assay.value |
| --- | --- | --- |
| O=C1NC(=S)S/C1=C/c1ccc(/C=C2/SC(=S)NC2=O)cc1 | % | -19 |
| CCN1CCC(O)(/C=C/c2ccccc2)C(C(=O)/C=C/c2ccccc2)C1 (centres undefined) | % | 93 |
| Oc1cc(O)cc(O)c1 | % | 16 |

molecule `O=C1/C(=C\c2ccc(Cl)cc2Cl)Sc2scc(-c3ccc(O)c(O)c3)[n+]21` , growth inhibition observed: 68

In plain terms, CC(=O)OC1OC2C(NC(=O)OC(C)(C)C)C1CC2(OCc1ccccc1)OCc1ccccc1 (centres undefined) has a documented growth inhibition of 28

The reported growth inhibition of the molecule NC(Cc1ccnnc1)C(=O)O (centres undefined) was -17

Quick note, growth inhibition for `O=C1CCCC/C1=C\c1ccc(Br)cc1` landed at 99

Lookup result for `CC(=O)Oc1cccc2c(C(=O)CCl)ccnc12` ; measured growth inhibition: 99

====

Experiment: NCI Yeast Anticancer Drug Screen. Data for the sgs1 mgt1 strain (AID 161);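 note: 0% = growth of cultures given vehicle only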
Conditions: S. cerevisiae sgs1 mgt1 strain, at 5.0 µM (retest, dose inferred, filed as 0.5), stronger effect = higher value
This is part of a sample that, as a whole, favours compounds with a hit. Of some 79,000 tested, about 15% had one in any assay.
Listing of recorded growth inhibition by entry.
Write down the numeric answer in % and omit the unit.

# annotated cases, reported growth inhibition shown
| molecule | growth inhibition, % |
| --- | --- |
| O=C1C=CC(=O)N1c1ccccc1[N+](=O)[O-] | 98 |
| Clc1ccccc1CCc1cc(-c2ccccc2)n[nH]1 | -6 |
| CCC12C=CCN3CC[C@@]4(c5cc([C@@]6(C(=O)OC)C[C@@H]7CN(CCc8c6[nH]c6ccccc86)C[C@](O)(CC)C7)c(OC)cc5N(C)[C@H]4[C@@](O)(C(=O)OC)[C@@H]1OC(=O)CCCCCCCCCCCN1C(=O)C=CC1=O)[C@H]32 (stereo not given in full) | 35 |
| CC(C)OCc1cccc2ccnc(COC(C)C)c12 | -10 |
| Nc1cccc2c1C(=O)c1ccc(Cl)cc1C2=O | 4 |
| O=C([O-])c1ccccc1[I+]c1ccc(C2CCCCC2)cc1 | 22 |
| CCC(=O)C(C(=O)CC)c1c(OC(=O)c2ccccc2)ccc(O)c1C(=O)OC | 4 |
| Cc1cc(Cl)cc2c1NC(=O)C2(O)C/C(=N/NC(=O)CC#N)c1cccc([N+](=O)[O-])c1 (stereo not given) | -1 |
| Cc1ccc(CN2CC(=O)N3Cc4ccccc4CN3C(=O)C2)cc1 | 4 |
| Clc1ccccc1/C=C/c1nccc2ccccc12 | 18 |

Per the records, this molecule ( `CC(=O)Oc1cccc2c(C(=O)CCl)ccnc12` ) has growth inhibition equal to 96

Form: molecule = `O=C1C=C(c2ccccc2)O/C1=C\C(=O)c1ccc(Cl)cc1` ; growth inhibition = 54

Entry CC1CCC2(OC1)OC1CC3C4CCC5CC(OC6OC(COC7OC(CO)C(O)C(O)C7O)C(OC7OC(C)C(O)C(O)C7O)C(O)C6OC6OC(CO)C(O)C(O)C6O)CCC5(C)C4CCC3(C)C1C2C (stereo not given) — recorded growth inhibition = 16

So, CC(CCC(=O)O)(Nc1ccc([N+](=O)[O-])cc1[N+](=O)[O-])C(=O)O (stereo not given) ? Its growth inhibition was 52

Entry under test: `COc1ccc(C(c2ccc(N(C)C)cc2)c2ccc(N(C)C)cc2)cc1` . Its growth inhibition was 99
